The following molecules are listed with their measured growth inhibition values.
PROTOCOL SUMMARY: NCI Yeast Anticancer Drug Screen. Data for the mec2-1 strain (AID 157)
EXPERIMENTAL PARAMETERS: S. cerevisiae mec2-1 strain, at 5.0 µM (retest, dose inferred, filed as 0.5), hits give high values
About 79,000 compounds went through this panel and 15% of them were active in at least one assay; those are over-represented in the sample as a whole.
Report the value in % with no unit label.

A selection of reference data follows.
>  <MOLECULE>
CC(=O)CCC1=C(C)C(=O)C(=O)C(C)=C1O

>  <OBSERVED>
-4

$$$$
>  <MOLECULE>
C/C(=N/NC(=S)Nc1ccccc1C)c1ccccn1

>  <OBSERVED>
-40

$$$$
>  <MOLECULE>
O=C(NOC(=O)c1ccc([N+](=O)[O-])cc1)c1ccc(Cl)cc1

>  <OBSERVED>
-4

$$$$
>  <MOLECULE>
CCN(CC)CCC(=O)Nc1ccc2sc3ccccc3c(=O)c2n1

>  <OBSERVED>
4

$$$$
>  <MOLECULE>
CCC1(O)C(=O)OCc2c1cc1n(c2=O)Cc2cc3c(N)cccc3nc2-1 (stereo unspecified)

>  <OBSERVED>
7

$$$$

Kindly note the recorded growth inhibition for BrC1C2CCC3OC3C12 (stereo unspecified) , which is 28

* * *

The following compounds are listed with their measured growth inhibition values.
PROTOCOL SUMMARY: NCI Yeast Anticancer Drug Screen. Data for the mlh1 rad18 strain (AID 175)
EXPERIMENTAL PARAMETERS: S. cerevisiae mlh1 rad18 strain growth inhibition; at 50.0 µM (retest, dose inferred, filed as 5.0); hits give high values
Compounds without any hit were thinned out: in the full panel of roughly 79,000, 15% have a hit.
Report the value in % with no unit label.

A selection of reference data follows.
>  <COMPOUND>
COc1ccc(C(C)c2cc3c(cc2OCC(C)=O)OCO3)cc1 (stereo unspecified)

>  <MEASUREMENT KIND>
growth inhibition

>  <OBSERVED>
45

$$$$
>  <COMPOUND>
CCC(=O)Nc1ccc(N=NN(C)C)cc1

>  <MEASUREMENT KIND>
growth inhibition

>  <OBSERVED>
9

$$$$
>  <COMPOUND>
CNC(=O)OCc1c(COC(=O)NC)c(C)n(-c2ccc(Br)cc2)c1C

>  <MEASUREMENT KIND>
growth inhibition

>  <OBSERVED>
84

$$$$
>  <COMPOUND>
CN(C)CCNC(=Cc1ccc2ccccc2[n+]1C)NCCN(C)C

>  <MEASUREMENT KIND>
growth inhibition

>  <OBSERVED>
47

$$$$
>  <COMPOUND>
O=[N+]([O-])[O][Sn]([O][Sn]([O][N+](=O)[O-])([c]1ccccc1)[c]1ccccc1)([c]1ccccc1)[c]1ccccc1

>  <MEASUREMENT KIND>
growth inhibition

>  <OBSERVED>
67

$$$$
>  <COMPOUND>
Cc1cc(O)c(C(C)C)cc1SC#N

>  <MEASUREMENT KIND>
growth inhibition

>  <OBSERVED>
99

$$$$

Kindly note the recorded growth inhibition for C/C1=C/C2OC(=O)C3(C)C2C(CC2(C)OC1=CC2=O)OC3(O)C(C)C (stereo unspecified) , which is 32

Kindly note the recorded growth inhibition for CC(C)OP(=O)(OC(C)C)/C(Cl)=N/Nc1ccc([N+](=O)[O-])cc1 , which is 97

Kindly note the recorded growth inhibition for NC(=O)NC1C(c2ccccc2)=C1c1ccccc1 , which is -38

Kindly note the recorded growth inhibition for O=C1Nc2ccc(Br)cc2C1=Nc1cccnc1 , which is 46

Kindly note the recorded growth inhibition for O=C1Oc2ccccc2C(=O)/C1=C/N1C(=O)N/C(=C\c2ccccc2Br)C1=O , which is 52

Kindly note the recorded growth inhibition for Cc1ccc(NC(Nc2ccc(C)cc2C)=C(C(Cl)=C(Cl)Cl)[N+](=O)[O-])c(C)c1 , which is 98

Kindly note the recorded growth inhibition for O=C(NNc1ccccc1)C(CCCCNS(=O)(=O)Cc1ccccc1)NS(=O)(=O)Cc1ccccc1 (stereo unspecified) , which is 56

Kindly note the recorded growth inhibition for COC(=O)C(Cl)(Cl)N=Nc1c(Cl)cc(Cl)c(C)c1Cl , which is 99

Kindly note the recorded growth inhibition for O=C(Cc1ccccc1)NN1C(=O)C(Cl)C1c1cc(Br)cc(Br)c1O (stereo unspecified) , which is 94

Kindly note the recorded growth inhibition for O=C1C[C@H]2[C@H](c3ccc(Br)cc3)[C@H]3C(=O)c4ccccc4NC(=O)[C@@H]3[C@@]2(O)c2ccccc2N1 , which is 54

Kindly note the recorded growth inhibition for OC(CC(O)(C(F)(F)F)C(F)(F)F)c1ccc(C(O)CC(O)(C(F)(F)F)C(F)(F)F)cc1 (stereo unspecified) , which is 99

Kindly note the recorded growth inhibition for Fc1ccc(Nc2ccc3ccccc3c2)cc1 , which is 69

Kindly note the recorded growth inhibition for Cc1nc2sc3c(c2c(=O)o1)CCCC3 , which is -2

Kindly note the recorded growth inhibition for C[n+]1c(/C=C/c2ccc(/C=N/NC(=O)c3ccc(C(=O)N/N=C/c4ccc(/C=C/c5cn6ccccc6[n+]5C)cc4)cc3)cc2)cn2ccccc21 , which is 98

Kindly note the recorded growth inhibition for Cc1ccc(S(=O)(=O)NC(=O)C2C(=O)CC3(CCCCC3)CC2=O)cc1 , which is 71

* * *

PROTOCOL SUMMARY: NCI Yeast Anticancer Drug Screen. Data for the bub3 strain (AID 167)
EXPERIMENTAL PARAMETERS: S. cerevisiae bub3 mutant strain, at 50.0 µM, hits give high values
Compounds without any hit were thinned out: in the full panel of roughly 79,000, 15% have a hit.
MEASUREMENT KIND: growth inhibition (%)
Report the value in % with no unit label.

>  <COMPOUND>
COc1ccc(C(C)c2cc3c(cc2OC(C)O)OCO3)cc1 (stereo not drawn)

>  <growth inhibition [%]>
25.4

$$$$
>  <COMPOUND>
O=C(O)C1CCCCC1c1c2ccc(=O)cc-2oc2cc(O)ccc12 (stereo not drawn)

>  <growth inhibition [%]>
86.7

$$$$
>  <COMPOUND>
Nc1ccc(N=Nc2ccc(-c3ccc(O)cc3)cc2)c2ccc(S(=O)(=O)O)cc12

>  <growth inhibition [%]>
38.4

$$$$
>  <COMPOUND>
COc1cc(C(=O)C=O)cc(OC)c1OC

>  <growth inhibition [%]>
31.9

$$$$
>  <COMPOUND>
COc1cc2oc3ccccc3c(=O)c2cc1CSc1ccccc1N

>  <growth inhibition [%]>
72.4

$$$$

Kindly note the recorded growth inhibition for CC1(c2ccccc2)O[C@@H]2C[C@H]3[C@@H]4CCC5=CC(=O)C=C[C@]5(C)[C@@]4(F)[C@@H](O)C[C@]3(C)[C@]2(C(=O)CO)O1 (stereo partly drawn) , which is 90.9

Kindly note the recorded growth inhibition for C/C(=N\OCC(O)CNCCSCc1ccccc1)c1ccccc1Cl (stereo not drawn) , which is 86

Kindly note the recorded growth inhibition for CCCCCCCCCCCCCCCCCCNc1nc(=O)n(C2CC(OP(=O)(O)OCC3OC(n4cc(F)c(=O)[nH]c4=O)CC3O)C(CO)O2)cc1F (stereo not drawn) , which is 68.3

Kindly note the recorded growth inhibition for O=C1c2ccccc2-c2cc3ccccc3c(=O)n21 , which is 84.5

Kindly note the recorded growth inhibition for CCCCN(CCC#N)c1ccc(/C=C/c2ccnc3ccccc23)cc1 , which is -8.45

Kindly note the recorded growth inhibition for O=C1CC(C(O)(C(F)(F)F)C(F)(F)Cl)CCC1C(O)(C(F)(F)F)C(F)(F)Cl (stereo not drawn) , which is 99.4

Kindly note the recorded growth inhibition for O=C(O)CNC(c1ccccc1)(c1ccccc1)c1ccccc1 , which is 90.7

Kindly note the recorded growth inhibition for O=C1Nc2ccc(Br)cc2C1=Nc1ccc(Cl)cc1 , which is 83.4

Kindly note the recorded growth inhibition for O=[N+]([O-])c1cccc2nc3ccccc3c(NCCCN3CCCCC3)c12 , which is 96.8

Kindly note the recorded growth inhibition for O=C(CCCN1CCC(Nc2ccc(F)cc2)(c2nnnn2C2CCCCC2)CC1)c1ccc(F)cc1 , which is 32.9

Kindly note the recorded growth inhibition for CC1CN(/N=C\c2ccc([N+](=O)[O-])o2)C(=O)O1 (stereo not drawn) , which is 14.1

Kindly note the recorded growth inhibition for O=C(Cc1ccccc1)NNc1nc(NNC(=O)c2ccncc2)nc(Nc2ccc(Cl)cc2)n1 , which is 31.8

Kindly note the recorded growth inhibition for CNC(=O)OCc1c(COC(=O)NC)c(C)n(-c2ccc(Br)cc2)c1C , which is 85

Kindly note the recorded growth inhibition for CN(C)CC1=Nc2cccc3cccc(c23)N1 , which is 90

Kindly note the recorded growth inhibition for Cc1c2c(nc3ccccc13)C(=O)c1cccnc1C2=O , which is 75.7

Kindly note the recorded growth inhibition for O=C(NNc1ccccc1)C(CCCCNS(=O)(=O)Cc1ccccc1)NS(=O)(=O)Cc1ccccc1 (stereo not drawn) , which is 53.6

Attribution: PubChem BioAssay (NCI)
